System: Triticum aestivum
Experiment: Post emergence phyototoxic activity against Triticum aestivum (wheat) plants assessed as inhibition of plant growth at 125 g ai/ha measured 22 to 37 days after compound application under greenhouse conditions
Assay type: functional
Conditions: read-out: GI
measurementName: inhibition of growth at 125 g/ha (%)
Answers are plain numbers, in %.

These recorded examples may help you get a feel for the data.
{"chemicalString": "COc1nc(C)nc(NC(=O)NS(=O)(=O)c2ncccc2C(=O)N(C)C)n1", "inhibition of growth at 125 g/ha, %": 0}
{"chemicalString": "COc1nc(NC(=O)NS(=O)(=O)c2ncccc2C(=O)N(C)C)nc(OC)n1", "inhibition of growth at 125 g/ha, %": 0}
{"chemicalString": "COC(=O)CNC(=O)c1cccnc1S(=O)(=O)NC(=O)Nc1nc(OC)cc(OC)n1", "inhibition of growth at 125 g/ha, %": 0}
{"chemicalString": "CN(C)C(=O)c1cccnc1S(=O)(=O)NC(=O)Nc1nc(OC(F)F)cc(OC(F)F)n1", "inhibition of growth at 125 g/ha, %": 0}

Fill in inhibition of growth at 125 g/ha for each of the 2 compounds listed.
1. COc1cc(OC)nc(NC(=O)NS(=O)(=O)c2ncccc2C(=O)N(C)c2ccc(F)cc2F)n1
2. Cc1cc(C)nc(NC(=O)NS(=O)(=O)c2ncccc2C(=O)N(C)C)n1

[100, 0]

Take each entry in turn and give its inhibition of growth at 125 g/ha.
1. COc1cc(OC)nc(NC(=O)NS(=O)(=O)c2ncccc2C(=O)N2CCOCC2)n1
2. COc1cc(OC)nc(NC(=O)NS(=O)(=O)c2ncccc2C(=O)N(C)OC)n1

0
100
